Subject of test: Bifunctional epoxide hydrolase 2 (Rattus norvegicus, UniProt P80299)
Sequence (P80299 whole entry): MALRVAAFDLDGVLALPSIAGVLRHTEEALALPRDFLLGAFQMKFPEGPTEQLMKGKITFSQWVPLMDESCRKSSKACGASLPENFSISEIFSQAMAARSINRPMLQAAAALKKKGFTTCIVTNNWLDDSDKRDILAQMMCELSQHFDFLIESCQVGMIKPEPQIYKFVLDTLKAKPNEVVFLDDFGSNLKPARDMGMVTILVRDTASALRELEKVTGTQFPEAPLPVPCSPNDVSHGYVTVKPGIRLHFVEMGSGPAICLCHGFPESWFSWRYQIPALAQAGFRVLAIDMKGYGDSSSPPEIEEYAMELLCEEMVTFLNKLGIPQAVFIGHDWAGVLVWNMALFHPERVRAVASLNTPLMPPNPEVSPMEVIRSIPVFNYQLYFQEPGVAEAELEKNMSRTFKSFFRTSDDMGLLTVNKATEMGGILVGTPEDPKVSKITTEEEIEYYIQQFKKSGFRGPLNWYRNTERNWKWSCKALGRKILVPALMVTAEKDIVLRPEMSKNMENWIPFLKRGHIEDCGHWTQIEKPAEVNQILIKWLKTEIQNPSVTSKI
Assay comment: Inhibition of phosphatase activity of full length rat soluble epoxide hydrolase pre-incubated for 30 mins before FDP substrate addition by fluorescence based assay
Assay readout: IC50 (µM)
# output: bare number, implied unit µM

Exam item: Which IC50 reading was recorded for the molecule O=C(O)CCc1nc(-c2ccccc2)c(-c2ccccc2)o1 ?
Marked response: 62.5

====

Assay comment: Cmax in Sprague-Dawley rat at 30 mg/kg, po monitored over 8 hrs by LC-MS analysis
Format: ADME, organism-based
Set-up: dose 30 mg/kg, route oral
Details: in vivo
Assay readout: Cmax (µM)
Record the value in µM, omitting the unit from your answer.

Exam item: What value of Cmax has been reported for the following compound? O=C(O)CCCc1nc(-c2ccc(Cl)c(Cl)c2)c(-c2ccccc2)o1
Marked response: 128
